Biological target: human DNMT3a/3l (Homo sapiens (Human), UniProt Q9Y6K1)
Sequence (Q9Y6K1 whole entry, looked up): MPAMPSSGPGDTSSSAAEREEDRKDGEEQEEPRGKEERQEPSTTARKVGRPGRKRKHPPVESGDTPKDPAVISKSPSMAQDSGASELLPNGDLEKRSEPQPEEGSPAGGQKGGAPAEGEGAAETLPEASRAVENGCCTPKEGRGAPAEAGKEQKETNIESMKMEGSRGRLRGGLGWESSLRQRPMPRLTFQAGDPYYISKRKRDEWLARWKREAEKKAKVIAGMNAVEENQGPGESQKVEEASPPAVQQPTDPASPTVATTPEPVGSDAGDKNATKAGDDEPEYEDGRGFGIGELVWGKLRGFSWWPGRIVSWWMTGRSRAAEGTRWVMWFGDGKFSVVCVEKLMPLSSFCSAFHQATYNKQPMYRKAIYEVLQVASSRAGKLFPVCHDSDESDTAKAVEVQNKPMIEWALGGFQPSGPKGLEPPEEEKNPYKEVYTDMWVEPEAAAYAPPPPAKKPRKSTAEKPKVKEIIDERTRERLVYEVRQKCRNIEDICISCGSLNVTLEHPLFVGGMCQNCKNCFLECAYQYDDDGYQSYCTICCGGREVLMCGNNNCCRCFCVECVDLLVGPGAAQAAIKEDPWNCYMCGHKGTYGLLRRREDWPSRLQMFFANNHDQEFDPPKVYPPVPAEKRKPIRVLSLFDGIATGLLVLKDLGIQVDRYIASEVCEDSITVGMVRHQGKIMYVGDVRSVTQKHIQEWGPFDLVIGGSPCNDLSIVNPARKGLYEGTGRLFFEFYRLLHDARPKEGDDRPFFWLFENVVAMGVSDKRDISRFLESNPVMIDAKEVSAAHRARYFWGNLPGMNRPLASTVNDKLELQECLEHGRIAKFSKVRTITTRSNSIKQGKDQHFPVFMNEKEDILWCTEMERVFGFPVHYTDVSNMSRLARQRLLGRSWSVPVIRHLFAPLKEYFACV
Sequence (Q9UJW3 whole entry partner, looked up): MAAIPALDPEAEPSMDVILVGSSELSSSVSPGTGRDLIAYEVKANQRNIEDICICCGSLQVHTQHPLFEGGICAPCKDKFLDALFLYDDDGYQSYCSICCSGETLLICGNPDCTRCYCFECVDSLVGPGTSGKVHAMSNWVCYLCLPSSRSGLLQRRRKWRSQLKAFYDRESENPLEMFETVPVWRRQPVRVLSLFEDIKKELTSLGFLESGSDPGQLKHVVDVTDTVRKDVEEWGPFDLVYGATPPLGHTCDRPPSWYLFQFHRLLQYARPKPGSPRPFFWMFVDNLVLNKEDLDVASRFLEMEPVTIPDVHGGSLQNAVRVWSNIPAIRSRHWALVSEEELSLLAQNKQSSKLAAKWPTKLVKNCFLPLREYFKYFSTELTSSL
Experiment: DNMT3a/3l breaklight assay
Format: biochemical
Conditions: read-out: DNMT3A Breaklight IC50
pIC50: −log10 of the molar value. Counter-ions that a name gives are not always drawn.
ENDPOINT: pIC50

compound="CCc1c(C#N)c(SC(C(N)=O)c2ccccc2)nc(N2CCCN(C)CC2)c1C#N (stereo not shown)" endpoint=pIC50 assay_result="< 3.30"
compound="CCc1c(C#N)c(SC(C(N)=O)c2ccccc2)nc(N2CCNCC2)c1C#N (stereo not shown)" endpoint=pIC50 assay_result="< 3.30"
compound="CN1CCN(CC2CCN(c3nc(SC(C(N)=O)c4ccccc4)c(C#N)c(C4CC4)c3C#N)CC2)CC1 (stereo not shown) [Example 125, trifluoroacetate]" endpoint=pIC50 assay_result=3.49

Fill blank: measured pIC50 of the compound CCc1c(C#N)c(SC(C(N)=O)c2ccccc2)nc(N2CCC(C)(N)CC2)c1C#N (stereo not shown) is ____.
< 3.30

Would you kindly repeat that for N#Cc1c(SC(C(N)=O)c2ccccc2)nc(N2CCOCC2)c(C#N)c1C1CC1 (stereo not shown) ?
< 3.30

Queued: CCc1c(C#N)c(SC(C(N)=O)c2ccccc2)nc(N2CCCN(CC(C)O)CC2)c1C#N (stereo not shown)
< 3.30

Quick one: CCc1c(C#N)c(SC(C(N)=O)c2ccccc2)nc(N2CCN(CC)CC2)c1C#N (stereo not shown)
< 3.30

Same thing, different compound: CCc1c(C#N)c(SC(C(N)=O)c2ccccc2)nc(N2CCC(=O)CC2)c1C#N (stereo not shown)
< 3.30

# repeat for CCc1c(C#N)c(N)nc(SC(C(N)=O)c2ccccc2)c1C#N (stereo not shown)
3.38

Same read-out for CCCN1CCCN(c2nc(SC(C(N)=O)c3ccccc3)c(C#N)c(CC)c2C#N)CC1 (stereo not shown) ?
< 3.30
